- assayed_target: human PDHK1 (hPDHK1) (Homo sapiens (Human), UniProt Q15118)
- Sequence (Q15118 29-436): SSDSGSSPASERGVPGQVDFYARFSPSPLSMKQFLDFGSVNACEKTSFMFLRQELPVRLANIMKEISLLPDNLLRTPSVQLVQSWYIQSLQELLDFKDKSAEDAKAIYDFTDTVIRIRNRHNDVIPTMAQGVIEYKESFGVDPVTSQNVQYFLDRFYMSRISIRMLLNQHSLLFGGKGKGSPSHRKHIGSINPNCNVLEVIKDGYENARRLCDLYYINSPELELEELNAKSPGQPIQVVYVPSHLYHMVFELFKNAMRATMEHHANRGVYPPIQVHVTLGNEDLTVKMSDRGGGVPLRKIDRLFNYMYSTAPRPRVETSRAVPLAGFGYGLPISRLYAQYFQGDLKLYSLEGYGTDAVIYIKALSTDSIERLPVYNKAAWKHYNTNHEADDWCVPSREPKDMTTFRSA
- method_summary: Inhibitory action of PDHK1 activity in vitro (residual PDH activity after PDHK reaction)
- Type: biochemical
- condition_set: PDH/hPDHK1 complex solution, PDHK reaction at room temperature for 45 min, NADH absorbance at 340 nm; read-out: hPDK1 IC50
property_name: pIC50
On this scale, pIC50 is minus log10 of a concentration expressed in M (mol/L).

Illustrative cases are given below, each with its answer.
>  <molecule_smiles>
C[C@H]1CN(C(=O)c2cc(C3CC3)nc(C(F)(F)F)c2)Cc2cnc([C@@](C)(O)C(F)(F)F)n21

>  <numeric_value>
8.22

$$$$
>  <molecule_smiles>
C[C@H]1CN(C(=O)C(C)(C)c2ccc(-c3nn[nH]n3)cc2)Cc2onc([C@@](C)(O)C(F)(F)F)c21

>  <numeric_value>
8.30

$$$$

State its pIC50 on human PDHK1 (hPDHK1) (Homo sapiens (Human), UniProt Q15118): C[C@H]1CN(C(=O)c2[nH]nc(C3CC3)c2Cl)Cc2onc([C@@](C)(O)C(F)(F)F)c21
8.52

State its pIC50 on human PDHK1 (hPDHK1) (Homo sapiens (Human), UniProt Q15118): C[C@H]1CN(C(=O)c2cnc(C3CC3)nc2)Cc2cnc([C@@](C)(O)C(F)(F)F)n21
7.40

State its pIC50 on human PDHK1 (hPDHK1) (Homo sapiens (Human), UniProt Q15118): C[C@H]1CN(C(=O)c2cc(-c3ccc(F)cc3C#N)nn2C)Cc2cnc([C@@](C)(O)C(F)(F)F)n21
8.52

State its pIC50 on human PDHK1 (hPDHK1) (Homo sapiens (Human), UniProt Q15118): C[C@H]1CN(C(=O)c2c(Cl)c(-c3ccc(C#N)cc3)nn2C)Cc2cnc([C@@](C)(O)C(F)(F)F)n21
8.30

State its pIC50 on human PDHK1 (hPDHK1) (Homo sapiens (Human), UniProt Q15118): C[C@H]1CN(C(=O)c2ccc(F)c(-c3ncc(F)cc3C#N)c2)Cc2cnc([C@@](C)(O)C(F)(F)F)n21
8.30

====

Measured inhibition at 0.003 µM of individual entries
- assayed_target: human PDHK1 (hPDHK1) (Homo sapiens (Human))
- method_summary: Inhibitory action of PDHK1 activity in vitro (residual PDH activity after PDHK reaction)
- Assay type: biochemical
- condition_set: at 3 nmol/L; shown when IC50 value could not be calculated; read-out: hPDHK1 inhibitory rate at the lowest concentration of the test compound
Write the number in % without appending the unit.

>  <molecule_smiles>
C[C@H]1CN(C(=O)c2ccnn2C2CC2)Cc2onc([C@@](C)(O)C(F)(F)F)c21

>  <assayed_target>
human PDHK1 (hPDHK1) (Homo sapiens (Human))

>  <unit_of_measurement>
%

>  <numeric_value>
53

$$$$
>  <molecule_smiles>
C[C@H]1CN(C(=O)c2cc(-c3ccc(F)cc3)ncc2F)Cc2cnc([C@@](C)(O)C(F)(F)F)n21

>  <assayed_target>
human PDHK1 (hPDHK1) (Homo sapiens (Human))

>  <unit_of_measurement>
%

>  <numeric_value>
52

$$$$
>  <molecule_smiles>
C[C@H]1CN(C(=O)c2ccnc(-c3ccc(F)cc3)c2F)Cc2cnc([C@@](C)(O)C(F)(F)F)n21

>  <assayed_target>
human PDHK1 (hPDHK1) (Homo sapiens (Human))

>  <unit_of_measurement>
%

>  <numeric_value>
66

$$$$
>  <molecule_smiles>
C[C@H]1CN(C(=O)c2ccnc(-c3ccc(F)cc3)c2)Cc2cnc([C@@](C)(O)C(F)(F)F)n21

>  <assayed_target>
human PDHK1 (hPDHK1) (Homo sapiens (Human))

>  <unit_of_measurement>
%

>  <numeric_value>
88

$$$$
>  <molecule_smiles>
C[C@H]1CN(C(=O)c2ccnc(-c3ccc(F)cc3C#N)c2)Cc2cnc([C@@](C)(O)C(F)(F)F)n21

>  <assayed_target>
human PDHK1 (hPDHK1) (Homo sapiens (Human))

>  <unit_of_measurement>
%

>  <numeric_value>
53

$$$$

State its inhibition at 0.003 µM on human PDHK1 (hPDHK1) (Homo sapiens (Human)): C[C@H]1CN(C(=O)c2cccc(-c3ccc(F)cc3)n2)Cc2cnc([C@@](C)(O)C(F)(F)F)n21
73

State its inhibition at 0.003 µM on human PDHK1 (hPDHK1) (Homo sapiens (Human)): C[C@H]1CN(C(=O)c2cc(-c3ccc(F)cc3F)nn2C)Cc2cnc([C@@](C)(O)C(F)(F)F)n21
53
